Numbers sourced from patent US5789417A.

Experimental System: thymidylate synthase (Mus musculus)
Construct: Thymidylate synthase was obtained in partially purified form from L1210 mouse leukaemia cells; endogenous in cells
Sequence (P07607 whole entry): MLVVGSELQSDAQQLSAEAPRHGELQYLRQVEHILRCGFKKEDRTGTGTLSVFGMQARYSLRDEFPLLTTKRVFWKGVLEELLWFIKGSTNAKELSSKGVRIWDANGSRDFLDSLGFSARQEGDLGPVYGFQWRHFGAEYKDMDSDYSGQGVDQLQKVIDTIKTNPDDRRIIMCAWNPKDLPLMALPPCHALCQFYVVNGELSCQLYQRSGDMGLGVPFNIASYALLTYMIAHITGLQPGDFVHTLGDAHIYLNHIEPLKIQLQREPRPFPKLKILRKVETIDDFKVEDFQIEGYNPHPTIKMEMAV
Assay Info: Test (a): in vitro inhibition of thymidylate synthase
Setup Conditions: partially purified thymidylate synthase from L1210 mouse leukaemia cells
pIC50: −log10 of the molar value.
Readout: pIC50

molecule="C#CCN(c1ccc(C(=O)N[C@@H](CCC(=O)O)C(=O)O)cc1)C1CCc2cc3nc(C)[nH]c(=O)c3cc21 (mixture of isomers)" reported=8.15

---

System: leukaemia cell line L1210
Assay Info: Test (b): inhibition of growth of leukaemia cell line L1210 in cell culture
Type: cell-based
Setup Conditions: Mus musculus
Readout: IC50 (nM)

compound="C#CCN(c1ccc(C(=O)N[C@@H](CCC(=O)O)C(=O)O)cc1)C1CCc2cc3nc(C)[nH]c(=O)c3cc21 (mixture of isomers)" reported=280

---

Test system: lymphoma cell line L5178Y TK-/-
Assay Info: Test (d): cytotoxicity to lymphoma cell line L5178Y TK-/- in vitro
Type: cell-based
Setup Conditions: Mus musculus
Readout: IC50 (µM)

compound="C#CCN(c1ccc(C(=O)N[C@@H](CCC(=O)O)C(=O)O)cc1)C1CCc2cc3nc(C)[nH]c(=O)c3cc21 (mixture of isomers)" readout=IC50 reported=0.72
